Values were extracted from patent US20260209348A1.

Target: recombinant human ROR2 D354E (human, UniProt Q01974 34-403)
Sequence (Q01974 34-403 D354E limits assumed): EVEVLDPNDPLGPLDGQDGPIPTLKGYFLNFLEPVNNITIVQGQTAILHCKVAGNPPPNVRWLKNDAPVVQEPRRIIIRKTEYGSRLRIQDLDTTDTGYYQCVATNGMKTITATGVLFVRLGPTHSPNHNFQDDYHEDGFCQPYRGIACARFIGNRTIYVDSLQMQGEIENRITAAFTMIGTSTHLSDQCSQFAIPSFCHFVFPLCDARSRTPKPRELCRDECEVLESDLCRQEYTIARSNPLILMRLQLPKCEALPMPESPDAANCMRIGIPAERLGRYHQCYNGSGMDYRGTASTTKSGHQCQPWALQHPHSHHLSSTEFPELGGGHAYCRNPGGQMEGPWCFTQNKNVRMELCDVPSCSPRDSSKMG
Assay: dot blot on nylon membrane, anti-human IgG-HRP
endpoint name: binding result

h6E6-102 (antibody, human IgG1, V domains shown, human IgG1; also called clone 102) VH: EVQLVESGGGLVKPGGSLRLSCAASGFTFSKYGLSWVRQAPGKGLEWVSTISSGGGYTHYVESVKGRFTISRDNAKNSLYLQMNSLRAEDTAVYYCARHPRDFSYASDYWGQGTTVTVSS VL: EIVMTQSPATLSVSPGERATLSCKASQDVGHYVAWYQQKPGQAPRLLIYWASTRATGIPARFSGSGSGTEFTLTISSLQSEDFAVYYCQQYNIYPWTFGQGTKVEIK ... no binding
h6E6-007 (antibody, human IgG1, V domains shown, human IgG1; also called clone 7) VH: EVQLVESGGGLVKPGGSLRLSCAASGFTFSGYGLSWVRQAPGKGLEWVSTISSGGGYTHYAPSVKGRFTISRDNAKNSLYLQMNSLRAEDTAVYYCARHPRDFSYAQDYWGQGTTVTVSS VL: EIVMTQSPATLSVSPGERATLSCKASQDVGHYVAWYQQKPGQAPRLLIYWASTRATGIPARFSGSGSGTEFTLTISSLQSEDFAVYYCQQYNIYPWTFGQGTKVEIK ... no binding
h6E6-029 (antibody, human IgG1, V domains shown, human IgG1; also called clone 29) VH: EVQLVESGGGLVKPGGSLRLSCAASGFTFSHYGVSWVRQAPGKGLEWVSTISSGGGYTHYAQSVKGRFTISRDNAKNSLYLQMNSLRAEDTAVYYCARHPRDFSYAQDYWGQGTTVTVSS VL: EIVMTQSPATLSVSPGERATLSCKASQDVGHYVAWYQQKPGQAPRLLIYWASTRHTGIPARFSGSGSGTEFTLTISSLQSEDFAVYYCQQYNIYPWTFGQGTKVEIK ... no binding
